Assign DC50 to each entry below.
- TARGET_OF_ASSAY: KRAS G12D (Homo sapiens, UniProt P01116, G12D)
- Construct: AsPc-1-KRAS (G12D)-HiBit-KI cell (Pharmaron); host or cells: AsPc-1-KRAS (G12D)-HiBit-KI cells (HiBiT knock-in at the endogenous KRAS locus)
- Sequence (P01116 1-188 isoform P01116-2 G12D): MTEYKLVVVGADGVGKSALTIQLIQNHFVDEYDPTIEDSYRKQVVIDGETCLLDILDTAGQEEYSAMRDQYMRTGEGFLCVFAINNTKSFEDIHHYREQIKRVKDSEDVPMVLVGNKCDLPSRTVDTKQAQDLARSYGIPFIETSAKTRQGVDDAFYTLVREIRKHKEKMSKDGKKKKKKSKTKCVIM
- TEST: KRAS G12D HiBit assay
- Assay type: cell-based
- MEASUREMENT_CONTEXT: AsPc-1-KRAS (G12D)-HiBit-KI cell, compound treatment for 24 hours, absolute DC50; class symbols
- Experimental: Day 1. […] Allowed cells to reach approximately 80% confluence before splitting. Rinsed cultivated cells in T-75 flasks with 5 mL PBS (Solarbio, P1020-500). […] Inactivated trypsin by adding excessive serum containing medium. Harvested the cells from flask into cell culture medium and counted the cell number. Day 2. Test compounds were dissolved at 0.3 mM in DMSO (Solarbio, D8371) as stock solution. […] The inhibition activity was calculated using the following formula: […]

Some solved cases for reference:
C#Cc1c(F)ccc2cc(O)cc(-c3ncc4c(N5CCOCC5)nc(OC[C@@]56CCCN5[C@H](COC(=O)N5CCC(CN7CCC(c8ccc9c(c8)n(C)c(=O)n9C8CCC(=O)NC8=O)CC7)CC5)CC6)nc4c3F)c12 (stereo partly drawn)
< 100 nM
CCc1c(F)ccc2cc(O)cc(-c3ncc4c(N5CCC[C@@](C)(O)C5)nc(OC[C@@]56CCCN5[C@H](COC(=O)N5CCC(CN7CCC(Cc8ccc9c(c8)n(C)c(=O)n9C8CCC(=O)NC8=O)CC7)CC5)CC6)nc4c3F)c12 (stereo partly drawn)
< 100 nM
C#Cc1c(F)ccc2cc(O)cc(-c3ncc4c(N5CCC[C@@](C)(O)C5)nc(OC[C@]56CCCN5[C@H](COC(=O)N5CCC(CN7CCC(c8ccc9c(c8)n(C)c(=O)n9C8CCC(=O)NC8=O)CC7)CC5)CC6)nc4c3F)c12 (stereo partly drawn)
< 100 nM
C#Cc1c(F)ccc2cccc(-c3ncc4c(N5CCC[C@@](C)(O)C5)nc(OCC5(CN6CCC7(CCC(c8cccc9c8n(C)c(=O)n9C8CCC(=O)NC8=O)CC7)CC6)CC5)nc4c3F)c12 (stereo partly drawn)
> 300 nM
CCc1c(F)ccc2cc(O)cc(-c3ncc4c(N5CCC[C@@H](N)C5)nc(OC[C@@]56CCCN5[C@H](COC(=O)N5CCC7(CC5)CC(N5CCC(c8ccc9c(c8)n(C)c(=O)n9C8CCC(=O)NC8=O)CC5)C7)CC6)nc4c3F)c12 (stereo partly drawn)
< 100 nM
C#Cc1c(F)ccc2cc(O)cc(-c3ncc4c(N5CCCCC5)nc(OCC5(CN6CCN(CC7CCN(c8ccc9c(c8)n(C)c(=O)n9C8CCC(=O)NC8=O)CC7)CC6)CC5)nc4c3F)c12 (stereo not drawn)
100 to 300 nM

Consider the following items and state reported DC50 for each.
1. CCc1c(F)ccc2cc(O)cc(-c3ncc4c(N5CCC[C@@](C)(O)C5)nc(OC[C@@]56CCCN5[C@H](COC(=O)N5CCC(CN7CCC(c8cccc9c8n(C)c(=O)n9C8CCC(=O)NC8=O)CC7)CC5)CC6)nc4c3F)c12 (stereo partly drawn)
2. CCc1c(F)ccc2cc(O)cc(-c3ncc4c(N5CCC[C@@](C)(O)C5)nc(OC[C@@]56CCCN5[C@H](COC(=O)N5CC7(CCN(CC8CCN(c9ccc%10c(c9)n(C)c(=O)n%10C9CCC(=O)NC9=O)CC8)CC7)C5)CC6)nc4c3F)c12 (stereo partly drawn)
3. CCc1c(F)ccc2cc(O)cc(-c3ncc4c(N5CCC[C@@](C)(O)C5)nc(OC[C@]56CCCN5[C@@H](COC(=O)N5CCC(CN7CCC(c8cc9c(cc8F)n(C8CCC(=O)NC8=O)c(=O)n9C)CC7)CC5)CC6)nc4c3F)c12 (stereo partly drawn)

["< 100 nM", "< 100 nM", "< 100 nM"]

----------
- TARGET_OF_ASSAY: KRAS G12V (Homo sapiens, UniProt P01116, G12V)
- Construct: SW620-KRAS (G12V)-HiBit-KI cell (Pharmaron); host or cells: SW620-KRAS (G12V)-HiBit-KI cells (HiBiT knock-in at the endogenous KRAS locus)
- Sequence (P01116 1-188 isoform P01116-2 G12V): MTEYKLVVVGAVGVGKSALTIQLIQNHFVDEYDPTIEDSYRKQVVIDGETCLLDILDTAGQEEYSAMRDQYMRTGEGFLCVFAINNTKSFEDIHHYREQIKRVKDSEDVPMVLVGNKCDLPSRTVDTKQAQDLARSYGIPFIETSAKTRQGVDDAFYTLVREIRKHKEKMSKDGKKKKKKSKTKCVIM
- TEST: KRAS G12V HiBit assay
- Type: cell-based
- MEASUREMENT_CONTEXT: SW620-KRAS (G12V)-HiBit-KI cells, compound treatment for 24 hours, class symbols
- Protocol: Day 1. […] Rinsed cultivated cells in T-75 flasks with 5 mL PBS (Solarbio, P1020-500). […] Inactivated trypsin by adding excessive serum containing medium. Harvested the cells from flask into cell culture medium and counted the cell number. Day 2. Test compounds were dissolved at 0.3 mM in DMSO (Solarbio, D8371) as stock solution. […] The degradation activity was calculated using the following formula: […]
MEASUREMENT_TYPE: DC50

C#Cc1c(F)ccc2cccc(-c3ncc4c(N5CCC[C@@](C)(O)C5)nc(OCC5(CN6CCN(C7CCN(c8ccc9c(c8)n(C)c(=O)n9C8CCC(=O)NC8=O)CC7)CC6)CC5)nc4c3F)c12 (some centres unmarked)
> 0.1 µM
C#Cc1c(F)ccc2cc(O)cc(-c3ncc4c(N5CCC[C@@](C)(O)C5)nc(OC[C@]56CCCN5[C@@H](COC(=O)N5CCC(CN7CCC(c8ccc9c(c8)n(C)c(=O)n9C8CCC(=O)NC8=O)CC7)CC5)CC6)nc4c3F)c12 (some centres unmarked)
< 0.01 µM
CCc1c(F)ccc2cc(O)cc(-c3ncc4c(N5CCC[C@@](C)(O)C5)nc(OC[C@@]56CCCN5[C@H](COC(=O)N5CCC(CN7CCC(c8ccc9c(C%10CCC(=O)NC%10=O)nn(C)c9c8F)CC7)CC5)CC6)nc4c3F)c12 (some centres unmarked)
< 0.01 µM

// each compound listed below needs its DC50
1. CCc1c(F)ccc2cc(O)cc(-c3ncc4c(N5CCC[C@@](C)(O)C5)nc(OC[C@@]56CCCN5[C@H](COC(=O)c5ccc(N7CCC(c8ccc9c(c8)n(C)c(=O)n9C8CCC(=O)NC8=O)CC7)cc5)CC6)nc4c3F)c12 (some centres unmarked)
2. C[C@H]1CN(CCOCCOc2ccc3c(c2)n(C)c(=O)n3C2CCC(=O)NC2=O)CCCN1c1nccc(-c2noc([C@]3(C)CCCc4sc(N)c(C#N)c43)n2)n1 (some centres unmarked)

1: 0.01 to 0.1 µM; 2: > 0.1 µM

----------
Assign DC50 to each entry below.
- TARGET_OF_ASSAY: KRAS (Homo sapiens)
- Construct: endogenous in cells; host or cells: KE39 (KRAS amplified) cells
- TEST: KRASamp MSD assay
- Assay type: cell-based
- MEASUREMENT_CONTEXT: KE39 (KRAS amplified) cells, treated with test compounds for 24 hr, MSD readout of KRAS degradation

Some compounds with recorded DC50:
CCc1c(F)ccc2cc(O)cc(-c3ncc4c(N5CCC[C@@](C)(O)C5)nc(OC[C@]56CCCN5[C@H](COC(=O)N5CCC(N7CCC(c8ccc9c(c8)n(C)c(=O)n9C8CCC(=O)NC8=O)C7)CC5)CC6)nc4c3F)c12 (stereo partly shown)
1 to 10 nM
C#Cc1c(F)ccc2cc(O)cc(-c3ncc4c(N5CCC[C@@](C)(O)C5)nc(OC[C@@]56CCCN5[C@H](COC(=O)N5CCC(COC7CN(c8ccc9c(c8)n(C)c(=O)n9C8CCC(=O)NC8=O)C7)CC5)CC6)nc4c3F)c12 (stereo partly shown)
1 to 10 nM
CCc1c(F)ccc2cc(O)cc(-c3ncc4c(N5CCC[C@@](C)(O)C5)nc(OC[C@@]56CCCN5[C@H](COC(=O)N5CCC(CN7CCC(c8ccc9c(c8)n(C)c(=O)n9C8CCC(=O)NC8=O)CC7)C(F)(F)C5)CC6)nc4c3F)c12 (stereo partly shown)
< 1 nM

Let us examine a further case.
Answer briefly: DC50 recorded on KRAS (Homo sapiens) for C#Cc1c(F)ccc2cc(O)cc(-c3ncc4c(N5CCC[C@@](C)(O)C5)nc(OCC5(CN6CCC7(CC6)CCN(c6cccc8c6n(C)c(=O)n8C6CCC(=O)NC6=O)CC7)CC5)nc4c3F)c12 (stereo partly shown)
1 to 10 nM

----------
- TARGET_OF_ASSAY: KRAS (Homo sapiens, UniProt P01116)
- Construct: endogenous in cells; host or cells: KE39 (KRAS amplified) cells
- Sequence (P01116 1-188 isoform P01116-2): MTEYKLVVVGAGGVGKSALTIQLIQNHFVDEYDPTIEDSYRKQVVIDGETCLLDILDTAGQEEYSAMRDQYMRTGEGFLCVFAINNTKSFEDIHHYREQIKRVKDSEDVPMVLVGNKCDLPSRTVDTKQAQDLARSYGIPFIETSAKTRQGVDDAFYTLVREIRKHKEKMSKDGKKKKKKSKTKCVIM
- TEST: KRASamp MSD assay
- Format: cell-based
- MEASUREMENT_CONTEXT: KE39 (KRAS amplified) cells, treated with test compounds for 24 hr, MSD readout of KRAS degradation
Exercise: for every item that follows, state its recorded DC50.

CCc1c(F)ccc2cc(O)cc(-c3ncc4c(N5CCC[C@@](C)(O)C5)nc(OC[C@@]56CCCN5[C@H](COC(=O)N5CCC7(CC5)CCN(C5CCN(c8ccc9c(c8)n(C)c(=O)n9C8CCC(=O)NC8=O)CC5)C7)CC6)nc4c3F)c12 (some centres unmarked)
1 to 10 nM
CCc1c(F)ccc2cc(O)cc(-c3ncc4c(N5CCC[C@@](C)(O)C5)nc(OC[C@]56CCCN5[C@H](COC(=O)N5CCC(CCCOc7ccc8c(c7)n(C)c(=O)n8C7CCC(=O)NC7=O)CC5)CC6)nc4c3F)c12 (some centres unmarked)
< 1 nM
CCc1c(F)ccc2cc(O)cc(-c3ncc4c(N5CC[C@H](O)C5)nc(OC[C@@]56CCCN5[C@H](COC(=O)N5CCC7(CC5)CC(N5CCC(c8ccc9c(c8)n(C)c(=O)n9C8CCC(=O)NC8=O)CC5)C7)CC6)nc4c3F)c12 (some centres unmarked)
1 to 10 nM
CCc1cccc2cc(O)cc(-c3ncc4c(N5CCC[C@@](C)(O)C5)nc(OC[C@@]56CCCN5[C@H](COC(=O)N5CCC7(CC5)CC(N5CCC(c8ccc9c(c8)n(C)c(=O)n9C8CCC(=O)NC8=O)CC5)C7)CC6)nc4c3F)c12 (some centres unmarked)
< 1 nM
C#Cc1c(F)ccc2cc(O)cc(-c3ncc4c(N5CCC[C@@](C)(O)C5)nc(OC[C@@]56CCCN5[C@H](COC(=O)N5CC(N7CCC(N8CCC(c9ccc%10c(c9)n(C)c(=O)n%10C9CCC(=O)NC9=O)CC8)CC7)C5)CC6)nc4c3F)c12 (some centres unmarked)
≥ 10 nM

Fill in DC50 for each of the 8 compounds listed.
1. C#Cc1c(F)ccc2cc(O)cc(-c3ncc4c(N5CCC[C@@](C)(O)C5)nc(OC[C@@]56CCCN5[C@H](COC(=O)N5CCC(OCC#Cc7ccc8c(c7)n(C)c(=O)n8C7CCC(=O)NC7=O)CC5)CC6)nc4c3F)c12 (some centres unmarked)
2. C#Cc1c(F)ccc2cccc(-c3ncc4c(N5CCC[C@@](C)(O)C5)nc(OCC5(CN6CCC7(CC6)CN(c6ccc8c(c6)n(C)c(=O)n8C6CCC(=O)NC6=O)C7)CC5)nc4c3F)c12 (some centres unmarked)
3. C#Cc1c(F)ccc2cc(O)cc(-c3ncc4c(N5CCC[C@@](C)(O)C5)nc(OC[C@@]56CCCN5[C@H](COC(=O)NC5CN(C7CCN(c8ccc9c(c8)n(C)c(=O)n9C8CCC(=O)NC8=O)CC7)C5)CC6)nc4c3F)c12 (some centres unmarked)
4. CCc1c(F)ccc2cc(O)cc(-c3cc4nc(OC[C@@]56CCCN5[C@H](COC(=O)N5CCC7(CC5)CC(N5CCC(c8ccc9c(c8)n(C)c(=O)n9C8CCC(=O)NC8=O)CC5)C7)CC6)nc(N5CCC[C@@](C)(O)C5)c4cn3)c12 (some centres unmarked)
5. CCc1c(F)ccc2cc(O)cc(-c3ncc4c(N5CCC[C@@](C)(O)C5)nc(OC[C@]56CCCN5[C@H](COC(=O)N5CCC(CCCCOc7ccc8c(c7)n(C)c(=O)n8C7CCC(=O)NC7=O)CC5)CC6)nc4c3F)c12 (some centres unmarked)
6. CCc1c(F)ccc2cc(O)cc(-c3ncc4c(N5CCC[C@@](C)(O)C5)nc(OC[C@@]56CCCN5C(CN5CCC(Cc7ccc8c(c7)n(C)c(=O)n8C7CCC(=O)NC7=O)CC5)CC6)nc4c3F)c12 (some centres unmarked)
7. CCc1c(F)ccc2cc(O)cc(-c3ncc4c(N5CCC[C@@](C)(O)C5)nc(OC[C@@]56CCCN5[C@H](COC(=O)N5CCC(CN7CCN(c8ccc9c(c8)n(C)c(=O)n9C8CCC(=O)NC8=O)CC7)CC5)CC6)nc4c3F)c12 (some centres unmarked)
8. CCc1c(F)ccc2cc(O)cc(-c3ncc4c(N5CCC[C@@](C)(O)C5)nc(OC[C@]56CCCN5[C@H](COC(=O)N5CCC(Oc7ccc8c(c7)n(C)c(=O)n8C7CCC(=O)NC7=O)CC5)CC6)nc4c3F)c12 (some centres unmarked)

1. 1 to 10 nM
2. ≥ 10 nM
3. ≥ 10 nM
4. < 1 nM
5. 1 to 10 nM
6. ≥ 10 nM
7. < 1 nM
8. 1 to 10 nM

Batch request: DC50 per item, same order as input.
1. CCc1c(F)ccc2cc(O)cc(-c3ncc4c(N5CCC[C@@](C)(O)C5)nc(OC[C@@]56CCCN5[C@H](COC(=O)N5CCC(CN7CCC(c8cccc9c8n(C)c(=O)n9C8CCC(=O)NC8=O)CC7)CC5)CC6)nc4c3F)c12 (some centres unmarked)
2. CCc1c(F)ccc2cc(O)cc(-c3cc4nc(OC[C@@]56CCCN5[C@H](COC(=O)N5CCC(CN7CCC(c8ccc9c(c8)n(C)c(=O)n9C8CCC(=O)NC8=O)CC7)CC5)CC6)nc(N5CCC[C@@](C)(O)C5)c4cn3)c12 (some centres unmarked)
3. CCc1c(F)ccc2cc(O)cc(-c3ncc4c(N5CCC[C@@](C)(O)C5)nc(OC[C@@]56CCCN5[C@H](COC(=O)N5CC(CN7CCC(c8ccc9c(c8)n(C)c(=O)n9C8CCC(=O)NC8=O)CC7)C5)CC6)nc4c3F)c12 (some centres unmarked)
4. CCc1c(F)ccc2cc(O)cc(-c3ncc4c(N5CCC[C@@](C)(O)C5)nc(OC[C@@]56CCCN5[C@H](COC(=O)N5CCC(CN7CCC(Cc8ccc9c(c8)n(C)c(=O)n9C8CCC(=O)NC8=O)CC7)CC5)CC6)nc4c3F)c12 (some centres unmarked)

1 to 10 nM
< 1 nM
1 to 10 nM
< 1 nM
